System: MDA-MB-231
Experiment: Cytotoxicity against human MDA-MB-231 cells assessed as cell viability at 10 uM after 72 hrs by MTS assay in presence of 10% fetal calf serum relative to control
Type: functional
Settings: MDA-MB-231, 72 h, read-out: Activity
Listed here are molecules together with their documented viability at 10 µM.
The answer is to be given in %; state only the numeric part.

Below are worked cases with known answers.
- Molecule: "Cc1c(C)c2c(c(C)c1O)CCC(C)(/C=C1\\SC(=O)N(Cc3ccccc3)C1=O)O2 (racemic)"
  Target Entity: "MDA-MB-231"
  Units: "%"
  viability at 10 µM: 88
- Molecule: "O=C1S/C(=C\\c2ccc(Cl)cc2)C(=O)N1Cc1ccccc1"
  Target Entity: "MDA-MB-231"
  Units: "%"
  viability at 10 µM: 73

## Input // map O=C(O)c1ccccc1-c1ccc(CN2C(=O)S/C(=C\c3ccc(O)cc3)C2=O)cc1 to recorded viability at 10 µM (system: MDA-MB-231)
## Output 94.9
